Molecular target: AVR-PikE with non-cleavable C-terminal 6xHis tag (pOPINE) (Magnaporthe oryzae, UniProt C4B8B8 22-113)
Test: SPR
Conditions: both partners purified
endpointName: Kd

>>> readoutvalue("Pikp-HMA domain (HMA integrated domain of the rice NLR Pikp-1) (domain or fragment, also called Pikp1-HMA; Pikp-1 HMA; not shown: 6xHis+SUMO, N-terminal, cleaved) GLKQKIVIKVAMEGNNCRSKAMALVASTGGVDSVALVGDLRDKIEVVGYGIDPIKLISALRKKVGDAELLQVS")
"0.367 µM"
